Form field: intrinsic clearance, human liver microsomes (one value per entry).
readout.name: intrinsic clearance, human liver microsomes (L/h/kg)

> print(dat)
                            smiles.notation  relation.qualifier  experimental.result
1             CSCc1c(C(=O)NC(C)C)oc2ccccc12                   =                 5.11
2      O=C(CSc1nnc(-c2cccs2)[nH]1)N1CCCCCC1                   =                 2.36
3        c1cc2cc[nH]c2c(CC2CN(C3CCCC3)C2)n1                   ≤                0.284
4  C=C(C)COc1cccc(C(=O)NCc2nncn2C2CCCCC2)c1                   =                  9.5
5    CSc1nccc(N2Cc3cnn(Cc4ccc(F)cc4)c3C2)n1                   =                 8.47
